Assay text: NCI Yeast Anticancer Drug Screen. Data for the mlh1 rad18 strain (AID 175)
Measurement conditions: S. cerevisiae mlh1 rad18 strain growth inhibition; at 50.0 µM (retest, dose inferred, filed as 5.0); hits give high values
This is part of a sample that, as a whole, favours compounds with a hit. Of some 79,000 tested, about 15% had one in any assay. The source made the active and inactive calls. Cut-off read from the data, not from the text of the source: active = growth inhibition above about 70%; inactive = the rest.
Assay endpoint: growth inhibition

// below: answered compounds
CCN(C(=O)O)c1ccc(/C=C/c2ccnc3ccccc23)cc1    91% (active)
CC(=O)Oc1cc2c(cc1OC(C)=O)OCC(c1ccccc1)C2 (stereo unspecified)    53% (inactive)
c1cc[c]([Sn]([NH]c2ncnc3[nH]cnc23)([NH]c2ncnc3[nH]cnc23)[c]2ccccc2)cc1    94% (active)

Noted for COC(=O)c1ccc(OC)cc1 : its growth inhibition reads -3% (inactive)

* * *

Assay text: NCI Yeast Anticancer Drug Screen. Data for the mlh1 rad18 strain (AID 175)
Measurement conditions: S. cerevisiae mlh1 rad18 strain growth inhibition; at 50.0 µM; hits give high values
About 79,000 compounds went through this panel and 15% of them were active in at least one assay; those are over-represented in the sample as a whole.
Could you label it Fulfilled if measured growth inhibition is 70% or higher, and Not fulfilled otherwise?

Cc1ccc(O)c2c(NCCCCCCNc3cc(C)[n+](C)c4c(C)ccc(O)c34)cc(C)[n+](C)c12    Fulfilled

Exercise: Hi team, for C=C(C)C(=O)OC1CC2=CC(CC3(C)OC3C3OC(=O)C(=C)C13)OC2=O (stereo not given) , is the recorded growth inhibition at or above 70%?
Key: Not fulfilled

Exercise: Decide: growth inhibition of CC(C)N(CN1C(=O)N/C(=C/c2cccc(/C=C3/NC(=O)N(CN(C(C)C)C(C)C)C3=O)c2)C1=O)C(C)C >= 70%?
Key: Not fulfilled

Exercise: Form field: growth inhibition at least 70%? Entry: CNC(=N)c1ccc(NC(=N)c2ccc(NC(=O)c3ccc(C(=O)Nc4ccc(C(=N)Nc5ccc(C(=N)NC)cc5)cc4)cc3)cc2)cc1
Key: Fulfilled

Exercise: Is reported growth inhibition greater than or equal to 70% here: CCOC(=N)CCCSSc1ccc(N=[N+]=[N-])cc1
Key: Fulfilled

Exercise: Decide: is the reported value of growth inhibition for Cn1c2c(c3ccccc31)CCN1C[C@@H]3CCCC[C@H]3C[C@@H]21 equal to or greater than 70%?
Key: Not fulfilled

* * *

// reported growth inhibition per item
Assay text: NCI Yeast Anticancer Drug Screen. Data for the cln2 rad14 strain (AID 165);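 note: 0% = growth equal to vehicle treated cultures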
Measurement conditions: S. cerevisiae cln2 rad14 strain, at 50.0 µM, hits give high values
Description: Growth inhibition of yeast strains with defined genetic alterations is measured as a screen for potential anti-cancer activity. Selected strains with alterations in DNA damage repair or cell cycle control were exposed to compounds and growth inhibition was measured relative to vehicle treated controls. The strain used in this assay is cln2 rad14
This is part of a sample that, as a whole, favours compounds with a hit. Of some 79,000 tested, about 15% had one in any assay.
Numbers only here, please. The scale is %.

Some solved cases for reference:
O=C1C=CC(=O)c2c1oc1ccccc21    48.5
O=C(Cn1cnc2ccc([N+](=O)[O-])cc21)N1CCN(c2ccccc2)CC1    -53.6
C/C=C(\C)C(=O)OC1C(C)C2(O)C(C=C(CO)CC3(O)C(=O)C(C)=CC32)C2C(C)(C)C12OC(=O)CCCCCCCCC (stereo not given)    75.7
Nc1c(F)cccc1F    20.4

For O=C1NN(C2=NNC3(C(=O)N2)c2ccccc2-c2ccccc23)C(c2ccccc2)=N/C1=C/c1ccc(O)cc1 the compound record lists growth inhibition as 7

* * *

Assay text: NCI Yeast Anticancer Drug Screen. Data for the mlh1 rad18 strain (AID 175)
Measurement conditions: S. cerevisiae mlh1 rad18 strain growth inhibition; at 5.0 µM (retest, dose inferred, filed as 0.5); hits give high values
Method: Growth inhibition of yeast strains with defined genetic alterations is measured as a screen for potential anti-cancer activity. Selected strains with alterations in DNA damage repair or cell cycle control were exposed to compounds and growth inhibition was measured relative to vehicle treated controls. The strain used in this assay is mlh1 rad18
About 79,000 compounds went through this panel and 15% of them were active in at least one assay; those are over-represented in the sample as a whole.
Assay endpoint: growth inhibition (%)
Write it as a number; the unit % goes unstated.

Take a look at these entries with their results.
CCOc1ccccc1-c1nc2c(s1)C(=O)c1ccccc1C2=O    94
Cc1c(S(C)=O)[n+](=O)c2ccccc2n1[O-] (configuration not stated)    18
N#CC1=CN=C2C=CC=C3N=C(C(Cl)(Cl)Cl)N=C1N32    25
O=C(Nc1ccccc1)OCCc1ccc(Br)cc1    -5
C1=C(c2ccccc2)C(c2ccc(OCCN3CCCCC3)cc2)Oc2ccccc21 (configuration not stated)    16

In the following, a different compound is considered.
growth inhibition reported for this compound COC1/C=C/OC2(C)Oc3c(C)c(OC(C)=O)c4c(c3C2=O)C(=O)C=C(NC(=O)/C(C)=C\C=C\C(C)C(O)C(C)C(O)C(C)C(OC(C)=O)C1C)C4=O (configuration not stated) : 5

* * *

Assay text: NCI Yeast Anticancer Drug Screen. Data for the rad50 strain (AID 155);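 note: 0% = growth of vehicle-only cultures of the same strain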
Measurement conditions: S. cerevisiae rad50 strain growth inhibition; at 5.0 µM (retest, dose inferred, filed as 0.5)
About 79,000 compounds went through this panel and 15% of them were active in at least one assay; those are over-represented in the sample as a whole. Calls of active or inactive are those of the source. Cut-off read from the data, not from the text of the source: active = growth inhibition above about 70%; inactive = the rest.
In this exercise, the only acceptable responses are 1.0 = active, 0.0 = inactive

Check out these entries, answers already filled in.
O=C1CC(c2ccccc2)C(=O)N2C(=O)CC(c3ccccc3)C(=O)N12 (stereo unspecified)    0.0
C=C/C=C/CC=C    0.0
O=C(O)c1c(Cl)c(Cl)c(Cl)c(Cl)c1-c1c2cc(I)c(=O)c(I)c-2oc2c(I)c(O)c(I)cc12    1.0
C[C-](O)O.O/C(=C\[C-](O)c1ccccc1)c1ccccc1.O/C(=C\[C-](O)c1ccccc1)c1ccccc1.[Nd+3] (stereo unspecified)    0.0
O=S(=O)(c1ccc(OCC(O)COc2ccc(S(=O)(=O)c3ccc(OCC4CO4)cc3)cc2)cc1)c1ccc(OCC2CO2)cc1 (stereo unspecified)    0.0

Exercise: What outcome does the record of this test show for COC(=O)Nc1nc2ccc(C(=O)c3ccccc3)cc2[nH]1 ?
Key: 0.0

Exercise: # fetch the recorded call for NNc1c(Cl)c(F)c(Cl)c(F)c1Cl here
Key: 0.0

Exercise: Short answer needed: outcome of this test for O=S=C(c1ccccc1)N(Cc1ccccc1)Cc1ccccc1 ?
Key: 0.0

Exercise: Check the results log: what was the call for CCOc1ccccc1N1C(=O)C=CC1=O ?
Key: 0.0

Exercise: Returns: the outcome recorded for CCC(c1ccc(O)cc1)C(CC)c1ccc(O)c(O)c1 (stereo unspecified) in this assay.
Key: 0.0

Exercise: Query: recorded result category for Cc1[nH]nc(-c2ccon2)c1N=O in this test
Key: 0.0

* * *

Assay text: NCI Yeast Anticancer Drug Screen. Data for the bub3 strain (AID 167)
Measurement conditions: S. cerevisiae bub3 mutant strain, at 5.0 µM (retest, dose inferred, filed as 0.5)
The panel holds about 79,000 compounds, 15% with a hit somewhere; the sample as a whole holds those more often. Activity calls are given as the source filed them. Rule as the data show it: active = growth inhibition above about 70%; inactive = the rest.
Hello, when you answer, please use one of the following outcomes: Yes for active, No for inactive

Worked cases, answers included:
COc1ccc(C2SCC(=O)N2c2nncs2)cc1 (stereo not given)    No
COC(=O)[C@@H]1c2cc3c(c(O)c2[C@@H](OC2OC(C)C(OC)C(C)(OC)C2OC)C[C@]1(C)O)C(=O)c1c(O)cc2c(c1C3=O)O[C@H]1O[C@]2(C)[C@H](O)[C@@H](N(C)C)[C@@H]1O (stereo not given in full)    No
O=C(O)c1c(Cl)c(Cl)c(Cl)c(Cl)c1-c1c2cc(I)c(=O)c(I)c-2oc2c(I)c(O)c(I)cc12    Yes
COC1(CO)C(=O)N(C)CC(=O)N1C (stereo not given)    No

Exercise: Record lookup: outcome of this test for NC1=CC(=O)c2ccccc2C1=O ?
Key: No

Exercise: Short answer needed: outcome of this test for CC(/C=C/c1cccs1)=N\C(=S)NC(N)=S ?
Key: No

Exercise: Please indicate how the test categorized Cc1cc(Br)c(N2C3=C(CC4=C2CCCC4=O)C(=O)CCC3)c(Br)c1 .
Key: No

Exercise: Called result for Cc1ccc(NC(=O)CSC(N)=O)cc1
Key: No

Exercise: Just curious, what result did c1ccc(N/N=C(/CC/C(=N\Nc2ccccc2)c2ccccc2)c2ccccc2)cc1 get here?
Key: No

Exercise: Query: recorded result category for O=C(O)/C(=C/c1c(O)ccc2ccccc12)c1csc(-c2nc(/C(=C\c3c(O)ccc4ccccc34)C(=O)O)cs2)n1 in this test
Key: No
